pEC50 values by entry
# System: HCV 1b_Huh-Luc/Neo-ET cell line persistently expressing a bicistronic genotype 1b replicon in Huh 7 cells
# ASSAY REMARKS: HCV replicon assay (luciferase readout, 72 h)
# Type: cell-based, HCV genotype 1b
# PARTICULARS: Hepatitis C virus, Huh-7, 72 h, read-out: Inhibition of HCV genotype 1b
pEC50: −log10 of the molar value.

COC(=O)N[C@@H](C(=O)N1CCC[C@H]1c1ncc(-c2ccc(C#Cc3ccc(-c4cnc([C@@H]5CCCN5C(=O)[C@H](NC(=O)OC)c5ccccc5)[nH]4)c(F)c3)cc2)[nH]1)c1ccccc1 [Compound 1013]
> 9.00
CN(C)C(=O)N[C@@H](C(=O)N1CCC[C@H]1c1ncc(-c2ccc(C#Cc3ccc(-c4cnc([C@@H]5CCCN5C(=O)[C@H](NC(=O)N(C)C)c5ccccc5)[nH]4)cc3)cc2)[nH]1)c1ccccc1 [Compound 161]
> 9.00
COC(=O)N[C@@H](C(=O)N1CCC[C@H]1c1ncc(-c2ccc(C#Cc3ccc(-c4cnc([C@@H]5CCCN5C(=O)[C@H](NC(=O)N5CCS(=O)(=O)CC5)c5ccccc5)[nH]4)cc3)cc2)[nH]1)c1ccccc1 [Compound 253]
> 9.00

Now examine the next entry.
If you can, please state the reported pEC50 value of COC(=O)N[C@H](C(=O)N1CCC[C@H]1c1ncc(-c2ccc(C#Cc3ccc(-c4cnc([C@@H]5CCCN5C(=O)[C@@H](c5ccccc5)N5CCC(O)CC5)[nH]4)cc3)cc2)[nH]1)C(C)C [Compound 956] .
> 9.00

Where do the numbers come from? From patent US20130296311A1.
